- System: HCT116-MTAPdel
- assay comment: 2D antiproliferative assay (CTG cell viability), MTAP-deficient cells
- Format: cell-based
- test context: Homo sapiens, HCT-116; HCT116 MTAP-deficient cells, 7-10 days, CTG; read-out: HCT116-MTAPdel/IC50/nM
recorded endpoint: IC50 (nM)

CCN(C(=O)C(=O)Nc1cnc(N)c2c1cnn2C)[C@H]1COc2cc(C(F)(F)F)ccc21 [Compound P19b] :: 261
Cn1ncc2c(NC(=O)C(=O)N(C3CC3)[C@H]3COc4cc(C(F)(F)F)ccc43)cnc(N)c21 [Compound P21a] :: 978
C[C@H]1CC[C@H](c2ccc3sc(-c4cccnc4)nc3c2)N(C(=O)C(=O)Nc2cnc(N)c3c2cnn3C)C1 (racemic) [Compound P17] :: 8
CN(C(=O)C(=O)Nc1cnc(N)c2c1cnn2C)[C@H]1COCc2nc(-c3cncc(Cl)c3)ccc21 [Compound H2a] :: 224
Cn1ncc2c(NC(=O)C(=O)N(CC(F)(F)F)[C@H]3COc4cc(C(F)(F)F)ccc43)cnc(N)c21 [Compound P20b] :: 883

1 = CN(C(=O)C(=O)Nc1cnc(N)c2c1cnn2C)[C@H]1COc2cc(OC(F)(F)F)ccc21 [Compound P30b]
2 = C[C@@H]1COC[C@H](c2ccc(-c3cncc(Cl)c3)cn2)N1C(=O)C(=O)Nc1cnc(N)c2c1cnn2C [Compound P13b]
3 = Cc1nc2cc(C3CCC(C)CN3C(=O)C(=O)Nc3cnc(N)c4c3cnn4C)ccc2s1 (racemic) [Compound P10]
4 = CN(C(=O)C(=O)Nc1cnc(N)c2c1cnn2C)C1COc2cc(SC(F)(F)F)ccc21 (racemic) [Compound P29]
5 = CCN(C(=O)C(=O)Nc1cnc(N)c2c1cnn2C)[C@@H]1COc2cc(C(F)(F)F)ccc21 [Compound P19a]
Highest IC50 first, then in falling order down to the smallest. Please list the labels in the order you were asked to rank them.
1, 4, 3, 5, 2

# credit: patent EP4653435A1
